# procedure summary: qHTS assay to test for compound auto fluorescence at 460 nm (blue) in HEK293 cells (AID 720678); further: on the % scale 0 is the no-effect control and ±100 the full control effect
# cond: blue autofluorescence 405/460 nm; series mostly up to 91.3 µM
Calls of active or inactive are those of the source. The call rests on the fitted dose curve; in most records, active means well fitted curve in the direction sought with a large enough effect in the repeat runs; inconclusive means weak or mixed curves; inactive means flat fitted curve, though single readings scatter.
quantity: fluorescence, % of triamterene

- O=C(O)Cc1ccc(OCCNC[C@H](O)c2ccccc2)cc1: inactive
- C[Si](C)(C)Cl: inactive
- NC(=O)C(=O)N/N=C/c1ccc([N+](=O)[O-])o1: inactive
- CCC(C)c1cc([N+](=O)[O-])cc([N+](=O)[O-])c1OC(=O)OC(C)C (configuration not stated): inactive
- CCN(CC)CCOC(=O)C1(C2CCCCC2)CCCCC1: inactive
- CCCCCCCCCC(=O)N(C)C: inactive
- c1ccc(Sc2ccccc2)cc1: inactive
- CCOC(=O)[C@@](C)(N)Cc1ccc(O)c(O)c1: 0.197% [at 18.6 µM] (inactive)
- CC(=O)Oc1ccc(C2(c3ccc(OC(C)=O)cc3)C(=O)Nc3ccccc32)cc1: inactive
- Cc1cc2c(C(C)C)c(O)c(O)c(C=O)c2c(O)c1-c1c(C)cc2c(C(C)C)c(O)c(O)c(C=O)c2c1O: inactive
- Cc1cccc(Br)c1: inactive
- CC(C)N=C(N)/N=C(\N)Nc1ccc(Cl)cc1: -0.225% [at 18.6 µM] (inactive)

###

# procedure summary: qHTS assay to identify small molecule agonists of the RXR signaling pathway - cell viability counter screen (AID 1159529); further: nearly all actives have a fitted effect of over 50% in size
# cond: RXR-alpha-bla HEK293T viability, CellTiter-Glo, 16 h; series mostly up to 76.8 µM
Inconclusive results are not listed. The source made the active and inactive calls. The call rests on the fitted dose curve; in most records, active means well fitted cell-killing curve with a large enough effect in the repeat runs; inconclusive means weak or mixed curves, or effect the other way; inactive means no such curve, though single readings can be large or run the other way.
Outcome codes: active, inactive

- CO[C@H]1C=CO[C@@]2(C)Oc3c(C)c(O)c4c(O)c(cc(O)c4c3C2=O)NC(=O)/C(C)=C\C=C/[C@H](C)[C@H](O)[C@@H](C)[C@@H](O)[C@@H](C)[C@H](OC(C)=O)[C@@H]1C: active
- O=C(Nc1ccc(Cl)c(Cl)c1)c1cc(Cl)cc(Cl)c1O: active
- C=CC(=C)CCC=C(C)C: inactive
- NC1(c2ccc(-c3nc4ccn5c(=O)[nH]nc5c4cc3-c3ccccc3)cc2)CCC1: active
- CCOC(/C=C(\C)CCC=C(C)C)OCC: inactive
- Clc1ccccc1CN1CCc2sccc2C1: inactive
- C/C=C/C(=O)C1=C(C)CCCC1(C)C: inactive
- CC1(C)C(=O)N(Br)C(=O)N1Br: inactive
- CC(=O)Nc1ccc(O)cc1: inactive
- CC(C)(C)CC(C)(C)c1ccccc1O: active
- CC(C)=C1CC[C@@H](C)CC1=O: inactive
- O=C1C=CC(=O)N1c1ccccc1: active
- CCCOc1sc(C(=O)N2CCC(c3cc(CN)ccc3F)CC2)c(C)c1Br: active
- Cc1ccc(O)cn1: inactive
- CC1=CP(=O)(c2ccccc2)CC1 (stereo not drawn): inactive
- CCCC(O)C(O)CO (stereo not drawn): inactive
- CC(C)C(=O)OCc1ccccc1: inactive
- O=C(O)CCCCCCC(=O)O: inactive
- O=C1NCCN1CCN1CCC(c2cn(-c3ccc(F)cc3)c3ccc(Cl)cc23)CC1: active
- O=C1NC2CCCCN2C12CCN(CCCN1c3ccccc3CCc3ccc(Cl)cc31)CC2 (stereo not drawn): active
- O=C1c2c(O)ccc([N+](=O)[O-])c2C(=O)c2c([N+](=O)[O-])ccc(O)c21: active
- CN(C)CCN1CCOCC1: inactive
- OCCCc1cccnc1: inactive
- OCCN1CN(CCO)CN(CCO)C1: inactive
- CCOC(=O)[C@@](C)(N)Cc1ccc(O)c(O)c1: inactive
- CCO[Si](C)(C)OCC: inactive
- CO[Si](CCC1CCC2OC2C1)(OC)OC (stereo not drawn): inactive
- CC=O: active
- C/C=C/C=N/NC(=O)c1ccncc1: inactive
- Nc1cc(Cl)c([N+](=O)[O-])cc1O: inactive
- O=CC1CC1: inactive
- CO[Si](CCCNCCNCCN)(OC)OC: inactive
- Oc1ccc(-c2ccc(O)cc2)cc1: inactive
- C=CC(=O)OCC(O)COc1ccccc1 (stereo not drawn): inactive
- Cc1cccc(C)c1NC(=O)CN1CCN(CCCC(c2ccc(F)cc2)c2ccc(F)cc2)CC1: active
- CCCCCCCC/C=C\CCCCCCCC(=O)NCc1ccc(O)c(OC)c1: inactive
- CCc1cccc(CC)c1NC(=O)C(=O)O: inactive
- C(=C/c1ccccc1)/c1ccccc1: inactive
- CCN(CC)CCOC(=O)C1(C2CCCCC2)CCCCC1: active
- CCCCCCCCCCCCCCCC: inactive
- O=S(=O)(O)CCCN1CCOCC1: inactive
- CC1CCCCC1: inactive
- CCC(C)C(=O)OC (stereo not drawn): inactive

###

# procedure summary: Caspase-3/7 induction in HepG2 cells by small molecules, qHTS cell viability counter screen (AID 1346981); further: nearly all actives have a fitted effect of over 30% in size
# cond: CellTiter-Fluor fluorescence, 17 h; series mostly up to 92.4 µM
Records with an inconclusive call do not appear. Activity calls are given as the source filed them. Calls follow the shape of the dose curve; as a rule, active = well fitted cell-killing curve with a large enough effect in the repeat runs; inconclusive = weak or mixed curves, or effect the other way; inactive = flat fitted curve, though single readings scatter.
Outcomes: Yes (active), No (inactive)

• CC1CCCCN1CCCOC(=O)c1ccc(OC2CCCCC2)cc1 (configuration not stated) = No
• CN(C)c1ccc(N=NS(=O)(=O)O)cc1 = Yes
• CCCC(=O)OCC(COC(=O)CCC)OC(=O)CCC = No
• Cc1cc(=O)[nH]c(=O)[nH]1 = No
• O=C1NCN(c2ccccc2)C12CCN(CCCC(c1ccc(F)cc1)c1ccc(F)cc1)CC2 = Yes
• O=C(O)CC(=O)O = No
• CCO[Si](C)(C)OCC = No

###

# procedure summary: qHTS assay for small molecule agonists of the p53 signaling pathway - cell viability (AID 651633); further: nearly all actives have a fitted effect of over 30% in size
# cond: p53RE-bla HCT-116 viability, ATP luminescence, 16 h; series mostly up to 83.3 µM
Records with an inconclusive call do not appear. Activity calls are given as the source filed them. Calls come from the whole dose curve.
Possible outcomes: yes for active, no for inactive

• CCCCCCCCCCCC(=O)N(CC)CC = no
• S=P(N1CC1)(N1CC1)N1CC1 = no
• O=Nc1ccc(NO)cc1 = no
• C=C[C@](C)(O)CC[C@@H]1[C@@]2(C)CCCC(C)(C)[C@@H]2CC[C@@]1(C)O = yes
• CCCCCCOc1ccc(O)cc1 = no
• COC(=O)C1=C(C)NC(C)=C(C(=O)OCCCN2CCC(c3ccccc3)(c3ccccc3)CC2)C1c1cccc([N+](=O)[O-])c1 (stereo unspecified) = yes
• CCOC(=O)C1=C(C)NC(C)=C(C(=O)OCC)C1c1ccccc1/C=C/C(=O)OC(C)(C)C = yes
• COc1cc(C=C2CCC/C(=C\c3ccc(O)c(OC)c3)C2=O)ccc1O = yes
• CCOC(=O)[C@@](C)(N)Cc1ccc(O)c(O)c1 = no
• CC1CCCNC1 (stereo unspecified) = no
• CN(C)CCOC(c1ccccc1)c1ccccc1 (tested in a mixture with another compound) = no

###

# procedure summary: qHTS assay to identify small molecule antagonists of the retinoic acid receptor (RAR) signaling pathway (AID 1159552; further: nearly all actives have a fitted effect of over 50% in size)
# cond: C3RL4 RARE luciferase reporter, retinol-stimulated, 6 h; series mostly up to 92.4 µM
Inconclusive results are not listed. Activity calls are given as the source filed them. Calls follow the shape of the dose curve; as a rule, active = well fitted inhibition curve with a large enough effect in the repeat runs; inconclusive = weak or mixed curves, or effect the other way; inactive = no such curve, though single readings can be large or run the other way.
Labels: active, inactive

• COC(=O)[C@]1(C)CCC[C@@]2(C)[C@H]1CC=C1C=C(C(C)C)CC[C@@H]12 = inactive
• C=CC(=O)OCCOCC(CC)(COCCOC(=O)C=C)COCCOC(=O)C=C = active
• CCOC(=O)CC(C)O (stereo not drawn) = inactive
• c1cc[nH]c1 = inactive
• Cc1cccc(C)n1 = inactive
• O=C1NCN(c2ccccc2)C12CCN(CCCC(c1ccc(F)cc1)c1ccc(F)cc1)CC2 = active
• Cc1cc(Nc2ccc(O)cc2)ccc1N = inactive
• OCCCCl = inactive
• O=C1OC(=O)c2cccc3cccc1c23 = inactive
• CCc1ccc(C)nc1 = inactive
• NC(=O)c1ccccc1N = inactive
• C/C=C/C=N/NC(=O)c1ccncc1 = inactive
• O=c1cccc[nH]1 = inactive
• O[C@@H](c1cc(C(F)(F)F)nc2c(C(F)(F)F)cccc12)[C@H]1CCCCN1 = active
• CCCCCCCCC(C)=O = inactive
• c1cc2c3c(c1)ccc1cccc(c13)C2 = inactive
• CCCSS/C(CCO)=C(\C)N(C=O)Cc1cnc(C)nc1N = active
• CC(=O)c1ccccc1N = inactive
• CCc1cccc(CC)c1NC(=O)C(=O)O = inactive
• CCOCOCC = inactive
• C=C1C(C)(C)[C@@]2(Cl)C(Cl)[C@]1(Cl)C(Cl)(Cl)C2(Cl)Cl (stereo partly drawn) = active
• CC1CCCCC1 = inactive
• O=C1C=CC(=O)N1c1ccccc1 = active
• CCN(CC)c1ccc(N)cc1 = inactive
• CC(=O)OC1CCCCC1 = inactive
• CCCCOC(=O)C(C)CC (stereo not drawn) = inactive
• CC(C)c1ccccc1N = inactive
• CC=O = active
